Provenance of the data: patent US11014911B2

- target: CDK2/Cyclin E1 full length (Homo sapiens (Human))
- experiment.notes: CDK2/Cyclin E1 full length mobility shift assay
pKi: −log10 of the molar value.
endpoint: pKi

| compound | target | pKi |
| --- | --- | --- |
| Cc1csc(CC(=O)Nc2cc([C@H]3CC[C@@H](OC(=O)N4CCC[C@@H]4C)C3)[nH]n2)n1 | CDK2/Cyclin E1 full length (Homo sapiens (Human)) | 8.83 |
| CCCNC(=O)O[C@H]1CC[C@@H](c2cc(NC(=O)Cc3ccc4[nH]c(C)nc4c3)n[nH]2)C1 | CDK2/Cyclin E1 full length (Homo sapiens (Human)) | 9.96 |
| COc1ncc(CC(=O)Nc2cc([C@H]3CC[C@@H](OC(=O)NC4(C)CCOC4)C3)[nH]n2)s1 (single isomer, unassigned) [Example 126] | CDK2/Cyclin E1 full length (Homo sapiens (Human)) | 9.57 |

(a) CCCNC(=O)O[C@H]1CC[C@@H](c2cc(NC(=O)Cc3ccc(OC)cn3)n[nH]2)C1
(b) COc1cc(CC(=O)Nc2cc([C@H]3CC[C@@H](OC(=O)NC(C)CC(F)F)C3)[nH]n2)ccn1 (single isomer, unassigned) [Example 98]
For the two items a and b , which reports the higher pKi value? State the label of the item chosen. b
(b: 9.48, a: 8.99)
